Here, each record is paired with measured absolute recovery data.
Experiment summary: absolute recovery over mixed-bed multilayer solid-phase extraction; higher = better recovery
Run parameters: nanopure water; enrichment method: SPE

{"Compound": "COc1ccc2c(c1OC)C(=O)OC2C1c2c(cc3c(c2OC)OCO3)CC[NH+]1C (configuration not stated)", "Scale unit": "%", "absolute recovery": 80.1}
{"Compound": "CC(O)(CS(=O)(=O)c1ccc(F)cc1)C(=O)Nc1ccc(C#N)c(C(F)(F)F)c1 (configuration not stated)", "Scale unit": "%", "absolute recovery": 100}
{"Compound": "CN(C)C(=O)Nc1ccc(-n2nc(C(C)(C)C)oc2=O)c(Cl)c1", "Scale unit": "%", "absolute recovery": 103}
{"Compound": "O=C(NCc1ncc(C(F)(F)F)cc1Cl)c1c(Cl)cccc1Cl [Fluopicolide]", "Scale unit": "%", "absolute recovery": 95.7}
{"Compound": "CC(C)c1ccc(N)cc1", "Scale unit": "%", "absolute recovery": 95.5}
{"Compound": "Cc1cc(C)nc([N-]S(=O)(=O)c2ccc(N)cc2)n1", "Scale unit": "%", "absolute recovery": 95.2}
{"Compound": "C[NH2+]C(CC(C)C)C(=O)NC1C(=O)NC(CC(N)=O)C(=O)NC2C(=O)NC3C(=O)NC(C(=O)NC(C(=O)[O-])c4cc(O)cc(O)c4-c4cc3ccc4O)C(O)c3ccc(c(Cl)c3)Oc3cc2cc(c3OC2OC(CO)C(O)C(O)C2OC2CC(C)([NH3+])C(O)C(C)O2)Oc2ccc(cc2Cl)C1O (configuration not stated)", "Scale unit": "%", "absolute recovery": 108}

* * *

Experiment summary: absolute recovery over mixed-bed multilayer solid-phase extraction; higher = better recovery
Run parameters: wastewater influent; enrichment method: SPE
absolute recovery below 90% gives not satisfied; absolute recovery at or above it gives satisfied.

{"Compound": "CCn1cc(C(=O)[O-])c(=O)c2cc(F)c(N3CC[NH2+]CC3)cc21 [Norfloxacin]", "Assigned label": "not satisfied"}
{"Compound": "N#Cc1cc(I)c([O-])c(I)c1 [Ioxynil]", "Assigned label": "satisfied"}
{"Compound": "C[NH2+]CCC(Oc1ccccc1C)c1ccccc1 (stereo not given) [Atomoxetin]", "Assigned label": "satisfied"}
{"Compound": "Cc1nc2n(c(=O)c1CC[NH+]1CCC(c3noc4cc(F)ccc34)CC1)CCCC2 [Risperidone]", "Assigned label": "not satisfied"}
{"Compound": "COc1cc(OC)n2nc([N-]S(=O)(=O)c3c(C(F)(F)F)ccnc3OC)nc2n1 [Pyroxsulam]", "Assigned label": "not satisfied"}
{"Compound": "COc1cc(C)c(C(=O)c2c(OC)ccc(Br)c2C)c(OC)c1OC [Metrafenone]", "Assigned label": "satisfied"}

* * *

Experiment summary: absolute recovery over vacuum-assisted evaporative concentration; higher = better recovery
Run parameters: wastewater effluent; enrichment method: VEC
Here, each record is paired with measured absolute recovery data.

{"Molecule": "OCC(O)C[NH+]1CCN(c2ccccc2)CC1 (stereo not drawn) [Dropropizine]", "absolute recovery [%]": 106}
{"Molecule": "CC(=NC#N)N(C)Cc1ccc(Cl)nc1 [Acetamiprid]", "absolute recovery [%]": 102}
{"Molecule": "O=C(NCC1CCCC[NH2+]1)c1cc(OCC(F)(F)F)ccc1OCC(F)(F)F (stereo not drawn) [Flecainid]", "absolute recovery [%]": 105}
{"Molecule": "CCc1ccc(CCOc2ccc(CC3SC(=O)[N-]C3=O)cc2)nc1 (stereo not drawn) [Pioglitazone]", "absolute recovery [%]": 107}
{"Molecule": "COc1nc(C)nc(N)n1 [2-Amino-4-methoxy-6-methyl-1-3-5-triazin]", "absolute recovery [%]": 101}
{"Molecule": "CCC1OC(=O)C(C)C(OC2CC(C)(OC)C(O)C(C)O2)C(C)C(OC2OC(C)CC([NH2+]C)C2O)C(C)(O)CC(C)C[NH+](C)C(C)C(O)C1(C)O (stereo not drawn) [N-Desmethyl-Azithromycin]", "absolute recovery [%]": 117}
{"Molecule": "C[NH+](C)CCC=C1c2ccccc2CCc2ccccc21 [Amitriptyline E]", "absolute recovery [%]": 110}
{"Molecule": "CSc1nc(=O)c(C(C)(C)C)n[n-]1 [Metribuzin-Desamino (=DA)]", "absolute recovery [%]": 101}
{"Molecule": "CC(C)Nc1nc(O)nc(NC(C)C)n1 [Propazine-2-hydroxy I]", "absolute recovery [%]": 104}
{"Molecule": "COc1nc(NC(C)C)nc(NC(C)C)n1 [Prometon F]", "absolute recovery [%]": 104}
{"Molecule": "CCOC(=O)C1=NN(c2ccc(Cl)cc2Cl)C(C)(C(=O)OCC)C1 (stereo not drawn) [Mefenpyr-diethyl]", "absolute recovery [%]": 84.3}
{"Molecule": "CCOc1ccc2ccccc2c1C(=O)NC1C(=O)N2C1SC(C)(C)C2C(=O)[O-] (stereo not drawn) [Nafcillin]", "absolute recovery [%]": 111}
{"Molecule": "O=[N+]([O-])N=C1NCCN1Cc1ccc(Cl)nc1 [Imidacloprid]", "absolute recovery [%]": 103}
{"Molecule": "CC(=O)N(C)c1ccc(N)cc1 [N-(4-Aminophenyl)-N-methyl-acetamid]", "absolute recovery [%]": 97.6}
{"Molecule": "Cc1nnc(-c2ccccc2)c(=O)n1N [Metamitron]", "absolute recovery [%]": 106}
{"Molecule": "CCOP(=O)(OCC)OCC [Triethylphosphat]", "absolute recovery [%]": 83.5}
{"Molecule": "CC(C)(C(=O)[O-])c1ccc(C(O)CCC[NH+]2CCC(C(O)(c3ccccc3)c3ccccc3)CC2)cc1 (stereo not drawn) [Fexofenadin]", "absolute recovery [%]": 105}
{"Molecule": "Clc1ccccc1C[NH+]1CCc2sccc2C1 [Ticlopidin]", "absolute recovery [%]": 51}
{"Molecule": "CC(C)Oc1cccc(NC(=O)c2ccccc2C(F)(F)F)c1 [Flutolanil]", "absolute recovery [%]": 94}
{"Molecule": "Cc1nn(-c2cc(NS(C)(=O)=O)c(Cl)cc2Cl)c(=O)n1C(F)F [Sulfentrazon]", "absolute recovery [%]": 104}
{"Molecule": "Cc1cccc(Nc2ccccc2C(=O)[O-])c1C [Mefenamic-acid]", "absolute recovery [%]": 102}
{"Molecule": "CC(Oc1ccc(Oc2ccc(C(F)(F)F)cn2)cc1)C(=O)[O-] (stereo not drawn) [Fluazifop]", "absolute recovery [%]": 101}
{"Molecule": "Cc1cccc(C)c1N(Cn1cccn1)C(=O)CCl [Metazachlor]", "absolute recovery [%]": 104}
{"Molecule": "CC([NH3+])C(O)c1ccccc1 (stereo not drawn) [Cathine]", "absolute recovery [%]": 104}
{"Molecule": "Nc1nc(N)[nH+]c(NC2CC2)n1 [Cyromazin]", "absolute recovery [%]": 101}
{"Molecule": "CCc1ccc(C(=O)NN(C(=O)c2cc(C)cc(C)c2)C(C)(C)C)cc1 [Tebufenozid]", "absolute recovery [%]": 102}
{"Molecule": "CCCCOc1cc(C(=O)NCC[NH+](CC)CC)c2ccccc2n1 [Dibucaine]", "absolute recovery [%]": 92}
{"Molecule": "NC1=[NH+]CCN1Cc1ccc(Cl)nc1 [Imidacloprid-desnitro]", "absolute recovery [%]": 107}
{"Molecule": "CCCCc1[nH+]cc(C=C(Cc2cccs2)C(=O)[O-])n1Cc1ccc(C(=O)[O-])cc1 [Eprosartan]", "absolute recovery [%]": 103}
{"Molecule": "O=C([O-])C(F)(F)C(F)(F)C(F)(F)F [PFBA]", "absolute recovery [%]": 96.7}
{"Molecule": "Cc1nc2n(c(=O)c1CC[NH+]1CCC(c3noc4cc(F)ccc34)CC1)CCCC2 [Risperidone]", "absolute recovery [%]": 98.7}
{"Molecule": "CCCOCC(=Nc1ccc(Cl)cc1C(F)(F)F)n1ccnc1 [Triflumizole]", "absolute recovery [%]": 93.9}
{"Molecule": "O=C([O-])c1ccccc1Nc1cccc(C(F)(F)F)c1 [Flufenamic-Acid]", "absolute recovery [%]": 101}
{"Molecule": "CC(C)C([NH3+])C(=O)OCC(CO)OCn1cnc2c(=O)[nH+]c(N)[nH]c21 (stereo not drawn) [Valganciclovir]", "absolute recovery [%]": 83.6}
{"Molecule": "COc1ccc(CC[NH+](C)CCCC(C#N)(c2ccc(OC)c(OC)c2)C(C)C)cc1OC (stereo not drawn) [Verapamil]", "absolute recovery [%]": 98.2}
{"Molecule": "CCC(C)OC(=O)N1CCCCC1CCO (stereo not drawn) [Picaridin (=Icaridin)]", "absolute recovery [%]": 94.9}
{"Molecule": "CC(C)c1ccc(NC(=O)N(C)C)cc1 [Isoproturon]", "absolute recovery [%]": 102}
{"Molecule": "CCC(C)C(=O)OC1CC(C)C=C2C=CC(C)C(CCC3CC(O)CC(=O)O3)C21 (stereo not drawn) [Lovastatin]", "absolute recovery [%]": 107}

* * *

Experiment summary: LC retention time (Atlantis T3, 5-95% MeOH gradient, 0.1% formic acid); higher = more retained / less polar
LC retention time below 10 min gives label 0; LC retention time at or above it gives label 1.

{"Compound": "CCn1cc(C(=O)[O-])c(=O)c2cc(F)c(N3CC[NH2+]CC3)cc21", "Assigned label": "label 1"}
{"Compound": "O=S(=O)([O-])c1ccc2ccc(S(=O)(=O)[O-])cc2c1", "Assigned label": "label 0"}
{"Compound": "CSc1nc(N)nc(NC(C)(C)C)n1", "Assigned label": "label 1"}
{"Compound": "CCCC1CC(C(=O)NC(C(C)Cl)C2OC(SC)C(O)C(O)C2O)[NH+](C)C1 (centres undefined)", "Assigned label": "label 1"}
{"Compound": "O=C1[N-]S(=O)(=O)c2ccccc21", "Assigned label": "label 1"}
{"Compound": "CC(=O)C1CCC2C3CCC4=CC(=O)CCC4(C)C3CCC12C (centres undefined)", "Assigned label": "label 1"}
{"Compound": "O=C(CCC[NH+]1CCC(O)(c2ccc(Cl)cc2)CC1)c1ccc(F)cc1", "Assigned label": "label 1"}
{"Compound": "CC(=O)Nc1c(I)c(C(=O)[O-])c(I)c(C(=O)NCCO)c1I", "Assigned label": "label 0"}
{"Compound": "CC([NH3+])C(O)c1ccccc1 (centres undefined)", "Assigned label": "label 0"}
